# Tested on: UACC-257 melanoma
# TEST_METHOD_NOTES: NCI tumour cell line growth inhibition, 48 h
Label NOT MET if TGI falls below 6 µM; label MET in every other case.

Cc1cc(S(=O)(=O)NC2=NCc3nc4ccccc4n32)c(S)cc1Cl	MET
Cc1[nH]c(=O)nc2nc3cc(Cl)cc(Cl)c3c(NC(C)(CO)CO)c12	MET
COc1ccc(Nc2nc3cc(N)cc(N)c3nc2-c2ccccc2)cc1	MET

Is reported TGI greater than or equal to 6 µM here: O=C(C=P(c1ccccc1)(c1ccccc1)c1ccccc1)c1ccc(-c2cccs2)cc1
MET

Is reported TGI greater than or equal to 6 µM here: CSc1ncnc2c1ncn2CCC(=O)O
MET

Is reported TGI greater than or equal to 6 µM here: N#C/C(=C\c1cc(O)cc(O)c1)C(N)=O
MET

Is reported TGI greater than or equal to 6 µM here: Cc1ccc(C)n1-c1ccccc1C1C=Cn2c(=O)nnc3c(OC(C)C)c(OC(C)C)c(O)c1c32 (configuration not stated)
MET

Is reported TGI greater than or equal to 6 µM here: CC(C)[N+]([O-])(CCCNc1c2ccccc2nc2cccc([N+](=O)[O-])c12)C(C)C
NOT MET

Is reported TGI greater than or equal to 6 µM here: COC(COC(N)=O)C1=C(N2CC2)C(=O)C(C)=C(N2CC2)C1=O (configuration not stated)
NOT MET

Is reported TGI greater than or equal to 6 µM here: CC(C)CC(NC(=O)C(C)(CI)Cc1ccccc1)C(=O)Nc1ccccc1 (configuration not stated)
MET

* * *

# Test system: SNB-19 CNS
# TEST_METHOD_NOTES: NCI tumour cell line growth inhibition, 48 h
PROPERTY_MEASURED: TGI

CC(C)[N+]([O-])(CCCNc1c2ccccc2nc2cccc([N+](=O)[O-])c12)C(C)C	5.17 µM
C/C=C(\C)c1cc(=O)c2c(C)cc3c(c2o1)C(=O)c1c(O)c(C2CC(C)(N(C)C)C(OC(C)=O)C(C)O2)cc(C2CC(N(C)C)C(O)C(C)O2)c1C3=O (stereo unspecified)	10.9 µM
CC(=O)O[C@@H]1C2CCC3C(CC[C@@]4(C)C3CC[C@@H]4C(C)N(C)C)[C@@]2(C)CC[C@@H]1NC(=O)C=C(C)C (stereo partly specified)	18.7 µM

Data point: Cc1ccc2c(=O)cc(-c3sccc3C)[nH]c2n1 ; TGI = > 100 µM

Data point: Nc1nc(/C=C\c2ccc([N+](=O)[O-])s2)nc(N2CCN(c3ccccc3)CC2)n1 ; TGI = 77 µM

Data point: C=CCOC(=O)CC[C@H](NC(=O)[C@@H](CCC(F)(F)F)Cc1ccc(O)cc1)C(=O)OCC=C ; TGI = > 100 µM

Data point: C[C@H](C1CC(C)(O)C(C)(O)C(O)O1)[C@H]1CC[C@H]2[C@@H]3[C@@H]4O[C@@H]4[C@@]4(O)CC=CC(=O)[C@]4(C)[C@H]3CC[C@]12C (stereo partly specified) ; TGI = > 50 µM

Data point: Cc1ccc(O)c(NC(=O)c2cccc(Nc3ccnc(C(F)(F)F)c3)c2)c1 ; TGI = 69.8 µM

Data point: Cc1cc(NC2=CC(=O)C(=O)c3ccccc32)no1 ; TGI = 31.9 µM

Data point: O=C1/C(=C/c2cccc(Cl)c2)CCCc2ccccc21 ; TGI = 31.5 µM

Data point: O=C1C=C(Nc2ccc(Cl)cc2Cl)c2ccccc2C1=O ; TGI = > 100 µM

Data point: CCOC(=O)c1nc2cc(C(F)(F)F)ccc2nc1Oc1ccc(C#N)cc1 ; TGI = > 100 µM

Data point: C=C[C@@H](C)[C@]1(C(=O)OC)CCCC12OCCO2 ; TGI = > 100 µM

Data point: FC1(F)[Se]C2C3CCC(C3)C2C1(F)F (stereo unspecified) ; TGI = > 100 µM

Data point: C=C(C)[C@H]1CC[C@@]2(C)C(C1)[C@H](C)CC[C@@H]2O (stereo partly specified) ; TGI = > 100 µM

* * *

# Tested on: HOP-92 NSCLC
# TEST_METHOD_NOTES: NCI tumour cell line growth inhibition, 48 h
Label 0 (no) if TGI falls below 20 µM; label 1 (yes) in every other case.

CCOC(OC(C)=O)[C@@H]1C=C[C@H](C)N(c2ccc([N+](=O)[O-])cc2)O1 (some centres undefined)	0 (no)
O=C(O)c1cc(-c2ccc3cc4c(cc3c2)OCO4)nc2ccccc12	1 (yes)
Cc1ccc(CC(Cc2ccccc2C)C(=O)O)c(C(=O)O)c1 (centres undefined)	1 (yes)
CC1(C)OC2C(COC(c3ccccc3)(c3ccccc3)c3ccccc3)OC(c3c[nH]c4c(N)ncnc34)C2O1 (centres undefined)	0 (no)
C[C@@H](Oc1cc(-n2cnc3ccc(OC4CCN(C)CC4)cc32)sc1C(N)=O)c1ccccc1Cl	0 (no)
CCCCN1C(=O)C2Cc3c([nH]c4ccccc34)C(c3cccc(O)c3)N2C1=O (centres undefined)	1 (yes)
CNC(=O)c1ccc(N2C(=S)N(c3cnc(C#N)c(C(F)(F)F)c3)C(=O)C23CCC3)cc1F	1 (yes)

Then there is this compound:
Is reported TGI greater than or equal to 20 µM here: NS(=O)(=O)OC[C@H]1C[C@@H](Nc2ccnc3cc(-c4cccc(SC(F)(F)F)c4)nn23)[C@H](O)[C@@H]1O
0 (no)

* * *

In this section we review reported TGI values for a set of compounds.
# Test system: HOP-92 NSCLC
# TEST_METHOD_NOTES: NCI tumour cell line growth inhibition, 48 h
Your answer should be a plain number; it is taken to be in µM.

Worked examples, 3 compounds total:
N#C/C(=C\c1ccc(F)cc1)c1nc(-c2cc3ccccc3oc2=O)cs1	29.5
Cc1c(-c2cnccn2)ssc1=S	89.7
COc1ccc2c(c1)Cc1c(NCCN(C)C)ccc(C(=O)NCCCN(C)CCCNC(=O)c3ccc(NCCN(C)C)c4c3Nc3ccc(OC)cc3C4)c1N2	2.79

Now for a further compound.
Data point: COc1ccc(C2SC(N)=Nc3c2c(C)nn3C(=O)c2ccccc2O)cc1OC (centres undefined) ; TGI = 4.36

* * *

# Test system: U251 CNS
# TEST_METHOD_NOTES: NCI tumour cell line growth inhibition, 48 h
In this section we review reported TGI values for a set of compounds.

CCCCN1C(=O)C2Cc3c([nH]c4ccccc34)C(c3cccc(O)c3)N2C1=O (stereo not drawn)	33.5 µM

Data point: N#CC12C(=O)NC(=O)C1(C#N)C1C=CC2CC1 (stereo not drawn) ; TGI = > 100 µM

Data point: O=C(O)CCNCC(=O)O ; TGI = > 100 µM

Data point: COc1cc2c(cc1OC(C)C)[C@H](c1ccc(Cl)cc1)N(c1ccc(N(C)CC3CCC(N4CCN(C)C(=O)C4)CC3)cc1)C(=O)C2 (stereo partly drawn) ; TGI = 8.44 µM

* * *

In this section we review reported TGI values for a set of compounds.
# System: SK-MEL-28 melanoma
# TEST_METHOD_NOTES: NCI tumour cell line growth inhibition, 48 h
Your answer should be a plain number; it is taken to be in µM.

C=CCOC(=O)CC[C@H](NC(=O)[C@@H](CCC(F)(F)F)Cc1ccc(O)cc1)C(=O)OCC=C	45.6
Cc1cc2c(C(=O)NC[C@H](C)c3ccccc3)c(O)c(O)cc2c(O)c1-c1c(C)cc2c(C(=O)NC[C@H](C)c3ccccc3)c(O)c(O)cc2c1O	4.41
OC1(C(Sc2cc(C(F)(F)F)cc(C(F)(F)F)c2)Sc2cc(C(F)(F)F)cc(C(F)(F)F)c2)C=CCCC1 (centres undefined)	9.12

Data point: Cc1ccc(O)c(NC(=O)c2cccc(Nc3ccnc(C(F)(F)F)c3)c2)c1 ; TGI = 31.2

* * *

In this section we review reported log10(TGI) values for a set of molecules.
# System: KM12 colon
# TEST_METHOD_NOTES: NCI tumour cell line growth inhibition, 48 h
// units: µM (pre-log); metric: TGI; scale: log10

CCc1ccc(Oc2c(-c3ccc(OCc4ccc(Cl)cc4)cc3O)n[nH]c2C(F)(F)F)cc1	0.53

Data point: CC(=O)Nc1ccc2c3c(cc(O)c2c1)N(C(=O)CCCC(=O)N1CC(CCl)c2c1cc(O)c1cc(NC(C)=O)ccc21)CC3CCl (centres undefined) ; log10(TGI) = 1.06

Data point: COc1ccc(C(c2ccccc2)(c2ccc(OC)cc2)N2C(=O)NC3C(CCCCC(=O)NCCCCCCOP(OCCC#N)N(C(C)C)C(C)C)SCC32)cc1 (centres undefined) ; log10(TGI) = 1.53

Data point: Cc1ccc(O)c(NC(=O)c2cccc(Nc3ccnc(C(F)(F)F)c3)c2)c1 ; log10(TGI) = 1.39

Data point: Cc1c2ccccc2c(C2C3C(=O)N(c4ccc(Br)cc4)C(=O)C3ON2C(C(N)=O)c2ccccc2)c2ccccc12 (centres undefined) ; log10(TGI) = 1.34

Data point: COC(COC(N)=O)C1=C(N2CC2)C(=O)C(C)=C(N2CC2)C1=O (centres undefined) ; log10(TGI) = -0.44
